- Procedure text: Metabolic stability in human liver microsomes assessed as compound remaining at 5 umol/L measured after 60 mins by UPLC/MS analysis
- Format: ADME, Microsome
- Condition info: dose 5 µmol/L, read-out: Stability
# thresholds on remaining at 1 h, 5 µM define classes: class 0: < 60%; class 1: ≥ 60% and < 80%; class 2: ≥ 80%

Enquiry: Please report the category associated with Cc1ccc(NC(=O)C[C@H](c2nnc([C@H]3C[C@@H](CC(C)C)C3)n2C2CC2)[C@H]2C[C@@H](O)C2)c(C)c1 , nothing else.
Return: class 0

Enquiry: Please report the category associated with Cc1ccc(NC(=O)C[C@H](CCC(=O)O)c2noc([C@H]3C[C@@H](CC(C)(C)C)C3)c2C2CC2)c(Cl)c1 , nothing else.
Return: class 1

Enquiry: Please report the category associated with Cc1ccc(NC(=O)C[C@H](Cc2nc(C(=O)O)cs2)c2noc([C@H]3C[C@@H](CC(C)C)C3)c2C2CC2)c(C)c1 , nothing else.
Return: class 1

Enquiry: Please report the category associated with Cc1ccc(NC(=O)C[C@H](Cc2ccc(C(=O)O)cc2)c2noc([C@H]3C[C@@H](CC(C)C)C3)c2C2CC2)c(C)c1 (mixture of isomers) , nothing else.
Return: class 1

Enquiry: Please report the category associated with Cc1ccc(NC(=O)CC(CCC(=O)O)c2ncnc([C@H]3C[C@@H](CC(C)(C)C)C3)c2C2CC2)c(Cl)c1 (mixture of isomers) , nothing else.
Return: class 0

Enquiry: Please report the category associated with Cc1ccc(NC(=O)C[C@H](CCC(=O)O)c2nnn([C@H]3C[C@@H](CC(C)(C)C)C3)c2C2CC2)c(Cl)c1 , nothing else.
Return: class 2

Enquiry: Please report the category associated with Cc1ccc(NC(=O)C[C@H](CC(=O)O)c2noc([C@H]3C[C@@H](CCC(C)C)C3)c2C2CC2)c(C)c1 , nothing else.
Return: class 2

Enquiry: Please report the category associated with Cc1ccc(C)c(NC(=O)C[C@H](CC(=O)O)c2noc([C@H]3C[C@@H](CC(C)C)C3)c2C2CC2)c1 , nothing else.
Return: class 1

Enquiry: Please report the category associated with Cc1ccc(NC(=O)CC(CC(=O)O)c2nnc([C@H]3C[C@@H](CC(C)C)C3)n2C2CC2)c(C)c1 (mixture of isomers) , nothing else.
Return: class 2

Enquiry: Please report the category associated with CCc1c([C@@H](CC(=O)O)CC(=O)Nc2ccc(C)cc2C)noc1[C@H]1C[C@@H](CC(C)C)C1 , nothing else.
Return: class 1

Enquiry: Please report the category associated with Cc1ccc(NC(=O)C[C@H](CCC(=O)O)n2nnc([C@H]3C[C@@H](CC(C)(C)C)C3)c2C2CC2)c(Cl)c1 , nothing else.
Return: class 1

Enquiry: Please report the category associated with Cc1ccc(NC(=O)C[C@H](OCC(=O)O)c2noc([C@H]3C[C@@H](CC(C)C)C3)c2C2CC2)c(C)c1 , nothing else.
Return: class 1

###

Kindly state pEC50 for each of the entries shown.
- Target or test system: Nuclear receptor ROR-gamma (Homo sapiens)
- Sequence (P51449 whole entry, the tested form may be a part): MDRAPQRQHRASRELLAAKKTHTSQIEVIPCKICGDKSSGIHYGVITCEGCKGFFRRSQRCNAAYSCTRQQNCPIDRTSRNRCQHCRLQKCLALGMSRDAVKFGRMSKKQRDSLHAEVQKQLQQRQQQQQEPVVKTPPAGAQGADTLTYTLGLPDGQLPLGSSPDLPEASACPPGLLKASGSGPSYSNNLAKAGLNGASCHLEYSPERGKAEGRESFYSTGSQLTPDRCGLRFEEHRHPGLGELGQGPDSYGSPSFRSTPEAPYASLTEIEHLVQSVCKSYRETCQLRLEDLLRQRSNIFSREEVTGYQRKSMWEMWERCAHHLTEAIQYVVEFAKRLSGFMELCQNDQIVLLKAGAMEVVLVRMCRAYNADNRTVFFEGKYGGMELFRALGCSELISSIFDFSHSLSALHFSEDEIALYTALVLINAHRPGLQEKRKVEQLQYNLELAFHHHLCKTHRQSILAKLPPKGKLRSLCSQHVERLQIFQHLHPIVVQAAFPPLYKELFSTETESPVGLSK
- Procedure text: Inhibition of GAL4 DNA-binding domain fused RORgamma (unknown origin) transfected in CHO-K1 cells incubated for 2 days by luciferase assay
pEC50 here is simply -log10 of the concentration when that concentration is written in mol/L.

Enquiry: Look up pEC50: Cc1ccc(NC(=O)C[C@@H](c2noc([C@H]3C[C@@H](CC(C)C)C3)c2C2CC2)C(C)(C)C(=O)O)c(C)c1
Return: 6.59

Enquiry: Look up pEC50: Cc1ccc(NC(=O)CC(CC(=O)N(C)C)c2nnc([C@H]3C[C@@H](CC(C)C)C3)n2C2CC2)c(C)c1 (mixture of isomers)
Return: 6.82

Enquiry: Look up pEC50: Cc1ccc(NC(=O)C[C@H](CC(=O)O)c2noc([C@H]3C[C@@H](CC(C)(C)C)C3)c2C2CC2)c(C)c1 (mixture of isomers)
Return: 7.54

Enquiry: Look up pEC50: CC(C)C[C@H]1C[C@@H](c2onc([C@@H](CC(=O)O)CC(=O)Nc3ccc(Cl)cc3F)c2C2CC2)C1
Return: 7.01

Enquiry: Look up pEC50: Cc1cc(F)ccc1NC(=O)C[C@H](CC(=O)O)c1noc([C@H]2C[C@@H](CC(C)C)C2)c1C1CC1
Return: 7.19

Enquiry: Look up pEC50: Cc1ccc(NC(=O)CC(CCC(=O)O)c2ncnc([C@H]3C[C@@H](CC(C)(C)C)C3)c2C2CC2)c(Cl)c1 (mixture of isomers)
Return: 7.80

###

- Procedure text: Apparent permeability in human Caco-2 cells at 25 umol/L incubated for 2 hrs by LC/MS/MS analysis
- Format: ADME, cell-based
- Condition info: dose 25 µmol/L
Rule: measured Papp at 2 h, 25 µM below 20 ×10⁻⁶ cm/s gets Fulfilled; anything equal to or greater than 20 ×10⁻⁶ cm/s gets Not fulfilled.

Enquiry: Quick check: does Cc1ccc(NC(=O)C[C@H](CC(C)(C)O)c2nnc([C@H]3C[C@@H](CC(C)C)C3)n2C2CC2)c(C)c1.Cl have Papp at 2 h, 25 µM under 20 ×10⁻⁶ cm/s?
Return: Not fulfilled

Enquiry: Quick check: does Cc1ccc(C)c(NC(=O)C[C@H](CC(=O)O)c2noc([C@H]3C[C@@H](CC(C)C)C3)c2C2CC2)c1 have Papp at 2 h, 25 µM under 20 ×10⁻⁶ cm/s?
Return: Not fulfilled

Enquiry: Quick check: does Cc1cc(F)ccc1NC(=O)C[C@H](CC(=O)O)c1noc([C@H]2C[C@@H](CC(C)C)C2)c1C1CC1 have Papp at 2 h, 25 µM under 20 ×10⁻⁶ cm/s?
Return: Not fulfilled

Enquiry: Quick check: does Cc1cc(C)cc(NC(=O)C[C@H](CC(=O)O)c2noc([C@H]3C[C@@H](CC(C)C)C3)c2C2CC2)c1 have Papp at 2 h, 25 µM under 20 ×10⁻⁶ cm/s?
Return: Not fulfilled

Enquiry: Quick check: does Cc1ccc(NC(=O)C[C@H](CCC(=O)O)n2nnc([C@H]3C[C@@H](CC(C)(C)C)C3)c2C2CC2)c(Cl)c1 have Papp at 2 h, 25 µM under 20 ×10⁻⁶ cm/s?
Return: Not fulfilled

Enquiry: Quick check: does Cc1ccc(NC(=O)CC(CC(=O)O)c2nnc([C@H]3C[C@@H](CC(C)C)C3)n2C2CC2)c(C)c1 (mixture of isomers) have Papp at 2 h, 25 µM under 20 ×10⁻⁶ cm/s?
Return: Fulfilled

Enquiry: Quick check: does Cc1ccc(NC(=O)CC(c2nnc([C@H]3C[C@@H](CC(C)C)C3)n2C2CC2)C2CN(C)C2)c(C)c1 (mixture of isomers) have Papp at 2 h, 25 µM under 20 ×10⁻⁶ cm/s?
Return: Fulfilled

Enquiry: Quick check: does Cc1ccc(NC(=O)C[C@H](CC(=O)O)c2noc([C@H]3C[C@@H](CC(C)C)C3)c2C2CC2)cc1C have Papp at 2 h, 25 µM under 20 ×10⁻⁶ cm/s?
Return: Not fulfilled

Enquiry: Quick check: does Cc1cc(C)c(NC(=O)C[C@H](CC(=O)O)c2noc([C@H]3C[C@@H](CC(C)C)C3)c2C2CC2)cc1C have Papp at 2 h, 25 µM under 20 ×10⁻⁶ cm/s?
Return: Not fulfilled

Enquiry: Quick check: does Cc1ccc(NC(=O)CC(Cc2nnn[nH]2)c2nnc([C@H]3C[C@@H](CC(C)C)C3)n2C2CC2)c(C)c1 (mixture of isomers) have Papp at 2 h, 25 µM under 20 ×10⁻⁶ cm/s?
Return: Fulfilled

Enquiry: Quick check: does Cc1ccc(NC(=O)C[C@@H](c2noc([C@H]3C[C@@H](CC(C)C)C3)c2C2CC2)C(C)(C)C(=O)O)c(C)c1 have Papp at 2 h, 25 µM under 20 ×10⁻⁶ cm/s?
Return: Not fulfilled

Enquiry: Quick check: does Cc1ccc(NC(=O)C[C@H](CC(=O)O)c2noc([C@H]3C[C@@H](C(C)(C)C(C)C)C3)c2C2CC2)c(C)c1 have Papp at 2 h, 25 µM under 20 ×10⁻⁶ cm/s?
Return: Not fulfilled

Enquiry: Quick check: does Cc1cccc(C)c1NC(=O)C[C@H](CC(=O)O)c1noc([C@H]2C[C@@H](CC(C)C)C2)c1C1CC1 have Papp at 2 h, 25 µM under 20 ×10⁻⁶ cm/s?
Return: Not fulfilled

Enquiry: Quick check: does Cc1ccc(NC(=O)C[C@H](C[C@H]2C[C@@H](C(=O)O)C2)c2noc([C@H]3C[C@@H](CC(C)C)C3)c2C2CC2)c(C)c1 have Papp at 2 h, 25 µM under 20 ×10⁻⁶ cm/s?
Return: Not fulfilled

Enquiry: Quick check: does Cc1ccc(NC(=O)C[C@H](CC(=O)O)c2noc([C@H]3C[C@@H](CCC(C)C)C3)c2C2CC2)c(C)c1 have Papp at 2 h, 25 µM under 20 ×10⁻⁶ cm/s?
Return: Not fulfilled

###

- Procedure text: Apparent permeability in human Caco-2 cells at 25 umol/L incubated for 2 hrs by LC/MS/MS analysis
- Format: ADME, cell-based
- Condition info: dose 25 µmol/L
Rule: measured Papp at 2 h, 25 µM below 30 ×10⁻⁶ cm/s gets condition met; anything equal to or greater than 30 ×10⁻⁶ cm/s gets condition not met.

Enquiry: Quick check: does Cc1ccc(NC(=O)C[C@H](CC(=O)O)c2noc([C@H]3C[C@@H](CC(C)C)C3)c2C2CC2)c(C)c1 have Papp at 2 h, 25 µM under 30 ×10⁻⁶ cm/s?
Return: condition not met

Enquiry: Quick check: does CCC(CC)C[C@H]1C[C@@H](c2onc([C@@H](CC(=O)O)CC(=O)Nc3ccc(C)cc3C)c2C2CC2)C1 have Papp at 2 h, 25 µM under 30 ×10⁻⁶ cm/s?
Return: condition met

Enquiry: Quick check: does Cc1ccc(NC(=O)C[C@H](CCC(=O)O)n2ncc([C@H]3C[C@@H](CC(C)(C)C)C3)c2C2CC2)c(Cl)c1 have Papp at 2 h, 25 µM under 30 ×10⁻⁶ cm/s?
Return: condition met

Enquiry: Quick check: does Cc1ccc(NC(=O)C[C@H](CC(=O)O)c2noc([C@H]3C[C@@H](CC(C)C)C3)c2C2CC2)c(F)c1 have Papp at 2 h, 25 µM under 30 ×10⁻⁶ cm/s?
Return: condition not met

Enquiry: Quick check: does Cc1ccc(NC(=O)C[C@H](Cc2nc(C(=O)O)cs2)c2noc([C@H]3C[C@@H](CC(C)C)C3)c2C2CC2)c(C)c1 have Papp at 2 h, 25 µM under 30 ×10⁻⁶ cm/s?
Return: condition met

Enquiry: Quick check: does Cc1ccc(NC(=O)C[C@H](CC(=O)O)c2noc([C@H]3C[C@@H](CC(C)(C)C)C3)c2C2CC2)c(C)c1 (mixture of isomers) have Papp at 2 h, 25 µM under 30 ×10⁻⁶ cm/s?
Return: condition met
